# procedureDetails: qHTS assay for small molecule agonists of the antioxidant response element (ARE) signaling pathway measured by Nrf2-dependant transcriptional activity (AID 720636);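 as to activation: HepG2 cells with an ARE-driven luciferase reporter; % of control where 0% means no effect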
# conditionContext: ARE-luc HepG2, Nrf2 luciferase reporter, 16 h; series mostly up to 92.4 µM
Results filed as inconclusive are left out. Activity calls are given as the source filed them. Calls follow the shape of the dose curve; as a rule, active = well fitted activation curve with a large enough effect in the repeat runs; inconclusive = weak or mixed curves; inactive = flat fitted curve, though single readings scatter.
Classes used: label 1 (active), label 0 (inactive)

{"compound": "O=[N+]([O-])c1cccc(Cl)c1Cl", "className": "label 0"}
{"compound": "C=CC(=C)CCC=C(C)C", "className": "label 0"}
{"compound": "CCCCC(CC)CN (stereo unspecified)", "className": "label 0"}
{"compound": "OCCNCCO", "className": "label 0"}
{"compound": "Cc1c(N=C=O)cccc1N=C=O", "className": "label 0"}
{"compound": "Clc1cc(Cl)c(Cl)cc1Cl", "className": "label 0"}
{"compound": "C=Cc1ccccc1Cl", "className": "label 0"}
{"compound": "CN(C)C=O", "className": "label 0"}
{"compound": "CC12CCC(CC1=O)C2(C)C (stereo unspecified)", "className": "label 0"}
{"compound": "C=CC(=O)OCCOCCOCCOCCOC(=O)C=C", "className": "label 1"}
{"compound": "CC(=O)OC/C=C(\\C)CCC=C(C)C", "className": "label 0"}
{"compound": "CC1=C2[C@H](/C=C(\\C)C(=O)O)CC[C@@H](C)[C@H]2CC1", "className": "label 0"}
{"compound": "Nc1ccc(S(=O)(=O)O)cc1", "className": "label 0"}
{"compound": "CCCCCCCCCCCC(=O)O", "className": "label 0"}
{"compound": "CC(C)=CCCC(C)CCO (stereo unspecified)", "className": "label 0"}
{"compound": "C=CC(C)(CCC=C(C)C)OC(C)=O (stereo unspecified)", "className": "label 0"}
{"compound": "CCO", "className": "label 0"}
{"compound": "C=CCc1ccc(OC)c(OC)c1", "className": "label 0"}
{"compound": "O=C(O)CC(C(=O)O)C(CC(=O)O)C(=O)O (stereo unspecified)", "className": "label 0"}
{"compound": "C[Si](C)(C)O[Si](C)(C)O[Si](C)(C)C", "className": "label 0"}
{"compound": "O=C1CCc2ccccc2O1", "className": "label 0"}
{"compound": "O=NO", "className": "label 0"}
{"compound": "C=C(C)C1CC=C(C)C(O)C1 (stereo unspecified)", "className": "label 0"}
{"compound": "CCCCCCCCCCCCCCC1CO1 (stereo unspecified)", "className": "label 0"}
{"compound": "COc1c2ccoc2cc2oc(=O)ccc12", "className": "label 0"}
{"compound": "CCCCOCCO", "className": "label 0"}

###

# testSystem: Rap guanine nucleotide exchange factor 3 (Homo sapiens) (UniProt O95398)
# procedureDetails: Counterscreen qHTS for agonist of cAMP-regulated guanine nucleotide exchange factor 3 (EPAC1) (AID 1645889); also: % of control where 0% means no effect; nearly all actives have a fitted effect of over 40% in size
# conditionContext: EPAC1 Rap1B-BODIPY-GDP exchange, fluorescence; series mostly up to 154 µM
Results filed as inconclusive are left out. Activity calls are given as the source filed them. The call rests on the fitted dose curve; in most records, active means well fitted activation curve with a large enough effect; inconclusive means small, poorly fitted or top-dose-only effect, or another doubt; inactive means no such curve, though single readings can be large or run the other way.

{"compound": "Cn1nc(-c2ccccc2)c2nc3ccccc3nc21", "activation": "inactive"}
{"compound": "COc1ccc(OC)c(NC(=O)CSc2ncnc3sc(C)cc23)c1", "activation": "inactive"}
{"compound": "CSc1ccc(CC2C(=O)Nc3ccccc32)cc1 (stereo not given)", "activation": "inactive"}
{"compound": "CC(C)C[C@H]1COCCS(=O)(=O)N1Cc1cccc(Cl)c1", "activation": "2.08% [at 30.8 µM] (inactive)"}
{"compound": "C=CCn1c(SCC(=O)Nc2cc(Cl)ccc2C(=O)O)nc2sc(C)c(C)c2c1=O", "activation": "1.53% [at 30.8 µM] (inactive)"}
{"compound": "CC(C)(C)c1ccc(C(=O)N/C(=C\\c2cccc([N+](=O)[O-])c2)C(=O)Nc2cccc(C(=O)O)c2)cc1", "activation": "22.2% [at 30.8 µM] (inactive)"}
{"compound": "CCOC(=O)C1=C(C)NC(SC)=C(C#N)C1CC(C)C (stereo not given)", "activation": "inactive"}
{"compound": "O=C(CSC1=NCCS1)N1N=C(c2cccs2)CC1c1ccc(F)cc1 (stereo not given)", "activation": "21.2% [at 30.8 µM] (inactive)"}
{"compound": "Cc1ccccc1-c1ccc(CN2C(C(C)C)C(=O)N(Cc3cn(CCC4OCCO4)nn3)CCS2(=O)=O)cc1 (stereo not given)", "activation": "inactive"}
{"compound": "Oc1c(C(Nc2nccs2)c2ccc(C(F)(F)F)cc2)ccc2cccnc12 (stereo not given)", "activation": "3.72% [at 30.8 µM] (inactive)"}
{"compound": "C/C(Cc1ccccc1)=N\\NC(=O)c1cccnc1", "activation": "15.7% [at 30.8 µM] (inactive)"}
{"compound": "Cc1nc2c(C(=O)NCCC3=CCCCC3)c[nH]n2c(=O)c1Cl", "activation": "inactive"}
{"compound": "CC(=O)Nc1ccc(S(=O)(=O)Nc2nc3ccccc3nc2-n2ccc(=NC(=O)c3ccccc3)cc2)cc1", "activation": "5.94% [at 30.8 µM] (inactive)"}
{"compound": "CCOC(=O)[C@H](C)N1[C@H](C)[C@H](c2ccccc2)Oc2ccc(Cl)cc2S1(=O)=O", "activation": "25.5% [at 30.8 µM] (inactive)"}
{"compound": "CC(C)(C)NC(=O)C(c1ccc(C(F)(F)F)cc1)n1c(=O)c(-c2ccco2)nc2ccccc21 (stereo not given)", "activation": "inactive"}
